Biological target: 5-HT1A receptor (Homo sapiens (Human))
Experiment: FLIPR Ca2+ flux functional assay at 5-HT1A (CHO cells)
Details: Ca2+ flux, CHO cells, at max concentration
// values below are reported 5-HT1A % Act @ Max Conc.
parameter: 5-HT1A % Act @ Max Conc. (%)

>  <molecule>
CCSc1cc(OC)c(CC(C)N)nc1OC (centres unmarked) [Compound 23]

>  <readout.number>
3.21

$$$$
>  <molecule>
CCSc1cc(OC)c(CCN)nc1OC [Compound 22]

>  <readout.number>
−1.51

$$$$
>  <molecule>
CCCCCc1cc(OC)c(CCN)nc1OC [Compound 7]

>  <readout.number>
61.95

$$$$
>  <molecule>
COc1cc(C2CC2)c(OC)nc1CC(C)N (centres unmarked) [Compound 27]

>  <readout.number>
0.49

$$$$
>  <molecule>
CCc1cc(OC)c(CC(C)N)nc1OC (centres unmarked) [Compound 20]

>  <readout.number>
0.9

$$$$
>  <molecule>
CCCCCc1nc(OC)c(CC(N)CC)cc1OC (centres unmarked) [Compound 11]

>  <readout.number>
197

$$$$
>  <molecule>
CCc1cc(OC)c(CCN)cc1OC [Compound 2C-E, 2C-E, reference compound]

>  <readout.number>
17.9

$$$$
>  <molecule>
CCCc1cc(OC)c(CC(N)CC)cc1OC (centres unmarked) [Compound 40, reference compound]

>  <readout.number>
96.43

$$$$
>  <molecule>
COc1cc(CCCCCC(F)(F)F)c(OC)nc1CCN [Compound 30]

>  <readout.number>
55.61

$$$$
>  <molecule>
COc1cc(CCCCCF)c(OC)nc1CCN [Compound 34]

>  <readout.number>
4.8

$$$$
>  <molecule>
CCCCc1cc(OC)c(CCN)nc1OC [Compound 31]

>  <readout.number>
21.32

$$$$
